Tested on: KB-3-1
Assay: Cytotoxic Profiling of Annotated Libraries Using Quantitative High-Throughput Screening (AID 1296008); further: on the % scale 0 is the no-effect control and ±100 the full control effect; nearly all actives have a fitted effect of over 60% in size
Details: Five cell lines viability, CellTiter-Glo ATP luminescence, 48-72 h; hits give low values
Records with an inconclusive call do not appear.
reported.endpoint: max response (%)
Your answer is read as %, so omit the unit and give the number.

compound: C=C(C)C1Cc2cc(C(=O)OC3OC(CO)C(O)C(O)C3O)ccc2O1 (configuration not stated)
unit.abbrev: %
observed.value: 0.614

Give its max response value. Item: CCOc1cc(CC(=O)NC(CC(C)C)c2ccccc2N2CCCCC2)ccc1C(=O)O (configuration not stated)
-3.75

Give its max response value. Item: OCC1OC(Oc2cc(O)cc(/C=C/c3ccc(O)cc3)c2)C(O)C(O)C1O (configuration not stated)
5.61

Give its max response value. Item: CCCC(=O)C1CCN(c2ncnc3c2CN(C(=O)c2ccc(-c4ccccc4)cc2)CC3)CC1
-16.8

Give its max response value. Item: OC/C=C/C=C/[C@H]1Cc2cc(O)cc(O)c2O1
6.07

Give its max response value. Item: O=S(=O)(Nc1ccccn1)c1ccc(N=Cc2c(O)[nH]c3ccc4ncsc4c23)cc1
-4.18

Give its max response value. Item: O=C1CCC=CC1(O)C(=O)OCc1ccccc1O[C@@H]1O[C@H](CO)[C@@H](O)[C@H](O)[C@H]1O (some centres not stated)
-1.56

Give its max response value. Item: CCCCc1ccc(C(=O)Nc2cc(-c3ccc(Cl)cc3)nn2-c2ccc(Cl)cc2)cc1
-4.76

Give its max response value. Item: CS(=O)(=O)c1ccc(-c2nnc(/C=C/c3nnc(-c4ccc(C#N)cc4)o3)n2-c2ccccc2Cl)nc1
2.94

Give its max response value. Item: O=C(O)c1ccc(OC2OC(CO)C(O)C(O)C2O)cc1 (configuration not stated)
6.64

Give its max response value. Item: CC1=CC(=O)C(=C(C)C)CC2C1CCC2(C)O (configuration not stated)
8.27

Give its max response value. Item: COC(=O)N[C@H](C(=O)N1[C@@H]2CC[C@@H](C2)[C@H]1c1nc2ccc(-c3ccc4c(c3)C(F)(F)c3cc(-c5cnc([C@@H]6CCC7(CC7)N6C(=O)[C@@H](NC(=O)OC)C(C)C)[nH]5)ccc3-4)cc2[nH]1)C(C)C
-8.63

Give its max response value. Item: CC(=O)C=C=C1C(C)(C)CC(O[C@@H]2O[C@H](CO)[C@@H](O)[C@H](O)[C@H]2O)CC1(C)O (some centres not stated)
0.592

Give its max response value. Item: COc1cc2ncnc(Nc3ccc(O)cc3)c2cc1OC
3.01

Give its max response value. Item: CC[C@H]1OC(=O)[C@H](C)[C@@H](O[C@H]2C[C@@](C)(OC)[C@@H](O)[C@H](C)O2)[C@H](C)[C@@H](O[C@@H]2O[C@H](C)C[C@H](N(C)C)[C@H]2O)[C@](C)(O)C[C@@H](C)C(=O)[C@H](C)[C@H]2OC(=O)O[C@@]21C
7.84

Give its max response value. Item: COC(=O)CC(O)C1OC(c2ccccc2)C(O)C1O (configuration not stated)
2.62

Give its max response value. Item: CC(C)=CCC[C@](C)(O[C@@H]1O[C@H](CO)[C@@H](O)[C@H](O)[C@H]1O)[C@H]1CC[C@]2(C)[C@@H]1[C@H](O)CC1[C@@]3(C)CC[C@H](O)C(C)(C)C3[C@@H](O[C@@H]3O[C@H](CO)[C@@H](O)[C@H](O)[C@H]3O)C[C@]12C (some centres not stated)
9.79

====

Assay: Primary fluorescence-based thiol-reactive (MSTI) qHTS assay for identification of artifact compounds. (AID 1845221); further: nearly all actives have a fitted effect of over 65% in size
Details: MSTI thiol-reactivity probe, 1 h; series mostly up to 53.8 µM
Inconclusive results are not listed. Calls of active or inactive are those of the source. Calls come from the whole dose curve; as a rule, active = well fitted inhibition curve with a large enough effect; inconclusive = small, poorly fitted or top-dose-only effect; inactive = no such curve, though single readings can be large or run the other way.
Give one outcome, nothing more. List: active, inactive

compound: Cc1[nH]c2ccccc2c1C1=C(NCCc2ccc(F)cc2)C(=O)N(C)C1=O
class.name: active

compound: O=C1NC(Cc2c[nH]c3ccccc23)C(=O)NC1Cc1cnc[nH]1 (configuration not stated)
class.name: inactive

compound: C[C@H](Nc1ncnc2nc[nH]c12)c1cc2ccc(F)cc2nc1-c1ccccn1
class.name: inactive

compound: CNS(=O)(=O)c1ccccc1Nc1nc(Nc2ccc(N3CCN(C)CC3)cc2OC)ncc1Cl
class.name: active

compound: Cc1cc(C)nc(NS(=O)(=O)c2ccc(NC(=S)NC(=O)COc3ccc(Br)cc3Cl)cc2)n1
class.name: inactive

compound: COc1ccc2[nH]c3c(-c4cccc5ccccc45)nccc3c2c1
class.name: inactive

Give the logged outcome of this assay for the following compound: C#CCN(Cc1cc2c(=O)n(C)c(CN3CCN(C)CC3)nc2cc1Cl)c1ccc(C(=O)NCc2cccnc2)cc1
inactive

Give the logged outcome of this assay for the following compound: C=C(C)[C@@H]1CC[C@]2(C)CC[C@]3(C)[C@H](CC[C@@H]4[C@@]5(C)CC[C@@H](O)C(C)(C)[C@@H]5CC[C@]43C)[C@@H]12
inactive

====

Tested on: JEG-3
Experiment: Primary qHTS to identify gynecologic anti-cancer compounds using libraries of approved drugs and bioactive compounds (AID 1345084); further: on the % scale 0 is the no-effect control and ±100 the full control effect; nearly all actives have a fitted effect of over 55% in size
Details: Gynecologic cancer cell panel viability, ATPlite luminescence, 48 h; series mostly up to 57.5 µM
Records with an inconclusive call do not appear. Calls of active or inactive are those of the source. Calls follow the shape of the dose curve; as a rule, active = well fitted cell-killing curve with a large enough effect; inconclusive = small, poorly fitted or top-dose-only effect, or effect the other way; inactive = flat fitted curve, though single readings scatter.
reported.endpoint: activity change, negative = cytotoxicity

Some solved cases for reference:
compound: COc1c2c(c(C)c3c1C(=O)OC3)O[C@@]1(C)CCC3(C(C)(C)O)OC(=O)CC[C@]3(C)[C@H]1C2 (stereo partly specified)
observed.value: inactive

compound: CC(Nc1ncnc2nc[nH]c12)c1cc2cccc(Cl)c2c(=O)n1-c1ccccc1 (stereo unspecified)
observed.value: inactive

compound: Cc1cc(=O)oc2c(C=O)c(O)ccc12
observed.value: inactive

compound: CC1OC(OC2C(O)C(OC3CCC4(C)C(CCC5(C)C4CC=C4C6CC(C)(COC7OC(CO)C(O)C(O)C7O)CC(O)C6(C)CCC45C)C3(C)C)OC(C(=O)O)C2O)C(O)C(O)C1OC1OCC(O)C(O)C1O (stereo unspecified)
observed.value: 10.4% [at 11.6 µM] (inactive)

compound: COCCN1CCN(Cc2ccc(-c3n[nH]c4c3C(=O)c3c(NC(=O)NN5CCOCC5)cccc3-4)cc2)CC1
observed.value: inactive

Give its activity change, negative = cytotoxicity value. Item: CC1=CC2C(CC1OC1OC(CO)C(O)C(O)C1O)C(C)CC(=O)C2C(C)C (stereo unspecified)
inactive

Give its activity change, negative = cytotoxicity value. Item: COc1ccc(-c2ccc(-c3cn(C(=O)N4CCCCC4c4ccccc4)nn3)cc2)cc1 (stereo unspecified)
inactive

Give its activity change, negative = cytotoxicity value. Item: N[C@H]1Cc2ccccc2N(O)C1=O
inactive

Give its activity change, negative = cytotoxicity value. Item: CC(=O)O[C@H]1CC[C@H](C)[C@@]2(C)[C@H](OC(C)=O)c3c(C)coc3C(=O)[C@H]12
inactive

Give its activity change, negative = cytotoxicity value. Item: CC(c1ncncc1F)C(O)(Cn1cncn1)c1ccc(F)cc1F (stereo unspecified)
inactive

Give its activity change, negative = cytotoxicity value. Item: C/C=C/c1cc(OC)c2c(c1)[C@@H](C)[C@@H](c1ccc(O)c(OC)c1)O2
inactive

====

Assay: qHTS to identify inhibitors of the type 1 interferon - major histocompatibility complex class I in skeletal muscle: primary screen against the NCATS Mechanism Interrogation Plate v5.0 (MIPE) Libary (AID 1347411); further: nearly all actives have a fitted effect of over 65% in size
Conditions: iHSKM cells + IFN-b, HiBiT-tagged MHC-I luminescence, 24 h; series mostly up to 45.8 µM
Inconclusive results are not listed. Active and inactive are the calls of the source. The call rests on the fitted dose curve; in most records, active means well fitted inhibition curve with a large enough effect; inconclusive means small, poorly fitted or top-dose-only effect; inactive means no such curve, though single readings can be large or run the other way.
Give one outcome, nothing more. List: 1 (active), -1 (inactive)

Example results:
compound.string: COCCN1CCN(Cc2ccc(-c3n[nH]c4c3C(=O)c3c(NC(=O)NN5CCOCC5)cccc3-4)cc2)CC1
class.name: 1
//
compound.string: Cc1c(F)cc(C(=O)NC2CC2)cc1-c1c(F)cn2c(C(C)(C)C)nnc2c1F
class.name: -1
//
compound.string: COCCOc1ccc(N2CCN(CCn3ncc4c3nc(N)n3nc(-c5ccco5)nc43)CC2)cc1
class.name: -1
//
compound.string: COc1cc(C(=O)NC2CCN(C)CC2)c(F)cc1Nc1ncc2c(n1)N(C1CCCC1)CC(F)(F)C(=O)N2C
class.name: 1
//
compound.string: COC(=O)N(C)c1c(N)nc(-c2nn(Cc3ccccc3F)c3ncccc23)nc1N
class.name: -1
//
compound.string: FC(F)(F)c1ccc(Nc2nc(-c3c(C(F)(F)F)nc4ccccn34)cs2)cc1
class.name: 1

Please find the next compound below.
Give the logged outcome of this assay for the following compound: COc1ccc(Cl)c(Nc2nc3ccccc3nc2NS(=O)(=O)c2cccc(NC(=O)C(C)(C)N)c2)c1
-1

====

Tested on: HeLa
Assay: Primary qHTS to identify gynecologic anti-cancer compounds using libraries of approved drugs and bioactive compounds (AID 1345084); further: on the % scale 0 is the no-effect control and ±100 the full control effect; nearly all actives have a fitted effect of over 55% in size
Settings: Gynecologic cancer cell panel viability, ATPlite luminescence, 48 h; series mostly up to 57.5 µM
Results filed as inconclusive are left out. The source made the active and inactive calls. Calls follow the shape of the dose curve; as a rule, active = well fitted cell-killing curve with a large enough effect; inconclusive = small, poorly fitted or top-dose-only effect, or effect the other way; inactive = flat fitted curve, though single readings scatter.
In this section, each of the compounds is paired with its reported activity change, negative = cytotoxicity.

compound: COCC1OC(OC(C)(C)C2CCC3(C)C=C(C4CCC5C4(C)CC(O)C4OC(C(C)(C)OC6OC(CO)C(O)C(O)C6NC(C)=O)CCC45C)CCC3O2)C(NC(C)=O)C(O)C1O (configuration not stated)
activity change, negative = cytotoxicity: 1.62% [at 11.6 µM] (inactive)

Give its activity change, negative = cytotoxicity value. Item: CC1(C)CC[C@]2(C(=O)O[C@@H]3O[C@H](CO)[C@@H](O)[C@H](O)[C@H]3O)CC[C@]3(C)C(=CCC4[C@@]5(C)CC[C@H](O[C@@H]6O[C@H](C(=O)O)[C@@H](O)[C@H](O)[C@H]6O)C(C)(C)C5CC[C@]43C)C2C1 (some centres not stated)
7.58% [at 11.6 µM] (inactive)

Give its activity change, negative = cytotoxicity value. Item: CC1(C)CC[C@]2(C(=O)O[C@@H]3O[C@H](CO[C@@H]4O[C@H](CO)[C@@H](O)[C@H](O)[C@H]4O[C@@H]4O[C@H](CO)[C@@H](O)[C@H](O)[C@H]4O)[C@@H](O)[C@H](O[C@@H]4O[C@H](CO)[C@@H](O)[C@H](O)[C@H]4O)[C@H]3O)CC[C@]3(C)C(=CCC4[C@@]5(C)CC[C@@H](O)[C@@](C)(C(=O)O[C@@H]6O[C@H](CO)[C@@H](O)[C@H](O)[C@H]6O)C5CC[C@]43C)[C@@H]2C1 (some centres not stated)
5.19% [at 6.55 µM] (inactive)

Give its activity change, negative = cytotoxicity value. Item: C[C@@H]1O[C@@H](O[C@H]2[C@H](OC(=O)[C@]34CCC(C)(C)C[C@H]3C3=CCC5[C@@]6(C)C[C@H](O)[C@H](O[C@@H]7O[C@H](CO)[C@@H](O)[C@H](O)[C@H]7O)[C@@](C)(CO)C6[C@H](O)C[C@@]5(C)[C@]3(C)C[C@H]4O)OC[C@H](O)[C@@H]2O)[C@H](O)[C@H](O)[C@H]1O[C@@H]1OC[C@@H](O)[C@H](O[C@H]2OC[C@](O)(CO)[C@H]2O)[C@H]1O (some centres not stated)
19.6% [at 6.55 µM] (inactive)

Give its activity change, negative = cytotoxicity value. Item: CC1(C)CC[C@]2(C(=O)O)[C@H](O)C[C@]3(C)C(=CCC4[C@@]5(C)CC[C@H](O[C@@H]6O[C@H](CO[C@@H]7OC[C@H](O)[C@H](O)[C@H]7O[C@@H]7OC[C@@H](O)[C@H](O)[C@H]7O)[C@@H](O)[C@H](O)[C@H]6O[C@@H]6O[C@H](CO)[C@@H](O)[C@H](O)[C@H]6O)C(C)(C)C5CC[C@]43C)[C@@H]2C1 (some centres not stated)
4.13% [at 11.6 µM] (inactive)

Give its activity change, negative = cytotoxicity value. Item: CC1(C)CCC2(C(=O)OC3OCC(O)C(O)C3O)CCC3(C)C(=CCC4C5(C)CC(O)C(OC6OC(COC7OCC(O)C(O)C7O)C(O)C(O)C6O)C(C)(C)C5CCC43C)C2C1 (configuration not stated)
7.08% [at 11.6 µM] (inactive)

Give its activity change, negative = cytotoxicity value. Item: CC1OC(OC2C(CO)OC(OCC3OC(OC(=O)C45CCC(C)(C)CC4C4=CCC6C7(C)CCC(OC8OC(CO)C(O)C(OC9OC(CO)C(O)C(O)C9O)C8O)C(C)(C)C7CCC6(C)C4(C)CC5)C(O)C(O)C3O)C(O)C2O)C(O)C(O)C1OC1OC(CO)C(O)C(O)C1O (configuration not stated)
3.66% [at 6.55 µM] (inactive)
